protocol_details: Pharmacokinetics in mice (plasma, brain, GI tissues) by LC/MS-MS
Format: in vivo, mouse
measurement_parameters: mouse, brain; mice, single 30 mg/kg oral dose; read-out: brain penetration (brain tissue to plasma area-under-the-curve)

# structure_notation, Kp
rows = [
    ("CCOc1ccc2cc(-c3nn(C(C)(C)CCO)c(N)c3C(N)=O)ccc2c1", 0.1),
]

----------
protocol_details: Aqueous solubility
Type: physicochemical
measurement_parameters: aqueous medium at pH 2, pH 2, simulated gastric fluid; read-out: Solubility at pH 2

# compound, solubility
rows = [
    ("CC(C)(CCO)n1nc(-c2ccc3cc(O)ccc3c2)c(C(N)=O)c1N [1770-M5]", "89 µM"),
    ("CCOc1ccc2cc(-c3nn(C4CCOCC4)c(N)c3C(N)=O)ccc2n1 [BKI-1841]", "> 100 µM"),
]

----------
pIC50 reference
tested_on: UniProt P12931
Sequence (P12931 whole entry): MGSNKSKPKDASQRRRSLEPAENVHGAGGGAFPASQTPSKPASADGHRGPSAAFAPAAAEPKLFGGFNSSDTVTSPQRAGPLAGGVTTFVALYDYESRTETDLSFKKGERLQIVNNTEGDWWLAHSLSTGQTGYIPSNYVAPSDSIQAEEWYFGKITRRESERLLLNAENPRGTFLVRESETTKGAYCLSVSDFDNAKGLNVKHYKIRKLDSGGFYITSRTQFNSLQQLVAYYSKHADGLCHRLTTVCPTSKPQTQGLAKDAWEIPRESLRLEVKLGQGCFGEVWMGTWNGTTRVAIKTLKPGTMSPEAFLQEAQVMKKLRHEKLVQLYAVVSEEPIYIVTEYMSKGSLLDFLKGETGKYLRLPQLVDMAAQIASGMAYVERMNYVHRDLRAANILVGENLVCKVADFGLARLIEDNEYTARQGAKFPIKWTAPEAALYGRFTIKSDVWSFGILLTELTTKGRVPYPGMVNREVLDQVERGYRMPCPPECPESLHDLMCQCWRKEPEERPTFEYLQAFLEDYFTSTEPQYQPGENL
protocol_details: In vitro inhibition of HsSRC
Format: biochemical
measurement_parameters: read-out: HsSR IC50
pIC50: −log10 of the molar value.
reported_metric: pIC50

# compound, tested_on, reported_metric, censoring_operator, value_measured
rows = [
    ("CC(C)(CCO)n1nc(-c2ccc3cc(O)ccc3c2)c(C(N)=O)c1N [1770-M5]", "UniProt P12931", "pIC50", "=", 5.27),
    ("CCOc1ccc2cc(-c3nn(C4CCOCC4)c(N)c3C(N)=O)ccc2n1 [BKI-1841]", "UniProt P12931", "pIC50", "<", 5.00),
]

----------
tested_on: C. parvum calcium dependent protein kinase 1 (CpCDPK1) (Cryptosporidium parvum, UniProt A3FQ16)
Sequence (A3FQ16 1-538): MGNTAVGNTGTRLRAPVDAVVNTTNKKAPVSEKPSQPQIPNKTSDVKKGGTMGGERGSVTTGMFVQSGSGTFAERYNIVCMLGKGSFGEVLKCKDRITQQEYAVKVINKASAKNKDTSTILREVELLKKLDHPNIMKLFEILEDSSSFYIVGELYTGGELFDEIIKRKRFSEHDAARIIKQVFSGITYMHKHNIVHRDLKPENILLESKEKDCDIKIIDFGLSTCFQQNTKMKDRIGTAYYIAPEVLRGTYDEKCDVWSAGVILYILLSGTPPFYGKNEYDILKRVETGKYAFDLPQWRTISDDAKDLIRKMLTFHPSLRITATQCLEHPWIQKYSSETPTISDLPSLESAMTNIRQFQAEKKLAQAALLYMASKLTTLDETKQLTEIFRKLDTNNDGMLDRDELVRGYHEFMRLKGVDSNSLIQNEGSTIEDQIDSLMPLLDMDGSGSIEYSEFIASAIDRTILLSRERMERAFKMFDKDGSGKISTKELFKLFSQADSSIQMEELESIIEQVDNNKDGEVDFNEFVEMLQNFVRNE
protocol_details: In vitro inhibition of CpCDPK1
Format: biochemical
IC50 reference

# structure_notation, IC50 (µM)
measured = [
    ("CC(C)(CCO)n1nc(-c2ccc3cc(O)ccc3c2)c(C(N)=O)c1N", 0.018),
    ("CCOc1ccc2cc(-c3nn(C4CCOCC4)c(N)c3C(N)=O)ccc2n1", 0.003),
]

----------
CC50 reference
protocol_details: In vitro cytotoxicity in HepG2 cells
Type: cell-based
measurement_parameters: human
reported_metric: CC50

# structure_notation, reported_metric, value_measured
measured = [
    ("CC(C)(CCO)n1nc(-c2ccc3cc(O)ccc3c2)c(C(N)=O)c1N", "CC50", "> 80 µM"),
    ("CCOc1ccc2cc(-c3nn(C4CCOCC4)c(N)c3C(N)=O)ccc2n1", "CC50", "> 80 µM"),
]

----------
EC50 reference
Tested on: Nluc expressing C. parvum
protocol_details: Nluc expressing C. parvum in vitro growth inhibition in infected HCT-8 cells
Type: cell-based
measurement_parameters: Cryptosporidium parvum

# structure_notation, EC50 / nM
records = [
    ("CC(C)(CCO)n1nc(-c2ccc3cc(O)ccc3c2)c(C(N)=O)c1N", 2100),
    ("CCOc1ccc2cc(-c3nn(C4CCOCC4)c(N)c3C(N)=O)ccc2n1", 700),
]

----------
protocol_details: Plasma concentrations and clinical toxicity signs in treated neonatal calves
Assay type: in vivo, calf
measurement_parameters: bovine, plasma, 5 mg/kg BID, at 4 h post dose 5, read-out: plasma observed maximum concentration (Cmax)

# structure_notation, Cmax (µM)
data = [
    ("CCOc1ccc2cc(-c3nn(C(C)(C)CCO)c(N)c3C(N)=O)ccc2c1", 10.3),
]

----------
tested_on: UniProt Q12809
Sequence (Q12809 whole entry): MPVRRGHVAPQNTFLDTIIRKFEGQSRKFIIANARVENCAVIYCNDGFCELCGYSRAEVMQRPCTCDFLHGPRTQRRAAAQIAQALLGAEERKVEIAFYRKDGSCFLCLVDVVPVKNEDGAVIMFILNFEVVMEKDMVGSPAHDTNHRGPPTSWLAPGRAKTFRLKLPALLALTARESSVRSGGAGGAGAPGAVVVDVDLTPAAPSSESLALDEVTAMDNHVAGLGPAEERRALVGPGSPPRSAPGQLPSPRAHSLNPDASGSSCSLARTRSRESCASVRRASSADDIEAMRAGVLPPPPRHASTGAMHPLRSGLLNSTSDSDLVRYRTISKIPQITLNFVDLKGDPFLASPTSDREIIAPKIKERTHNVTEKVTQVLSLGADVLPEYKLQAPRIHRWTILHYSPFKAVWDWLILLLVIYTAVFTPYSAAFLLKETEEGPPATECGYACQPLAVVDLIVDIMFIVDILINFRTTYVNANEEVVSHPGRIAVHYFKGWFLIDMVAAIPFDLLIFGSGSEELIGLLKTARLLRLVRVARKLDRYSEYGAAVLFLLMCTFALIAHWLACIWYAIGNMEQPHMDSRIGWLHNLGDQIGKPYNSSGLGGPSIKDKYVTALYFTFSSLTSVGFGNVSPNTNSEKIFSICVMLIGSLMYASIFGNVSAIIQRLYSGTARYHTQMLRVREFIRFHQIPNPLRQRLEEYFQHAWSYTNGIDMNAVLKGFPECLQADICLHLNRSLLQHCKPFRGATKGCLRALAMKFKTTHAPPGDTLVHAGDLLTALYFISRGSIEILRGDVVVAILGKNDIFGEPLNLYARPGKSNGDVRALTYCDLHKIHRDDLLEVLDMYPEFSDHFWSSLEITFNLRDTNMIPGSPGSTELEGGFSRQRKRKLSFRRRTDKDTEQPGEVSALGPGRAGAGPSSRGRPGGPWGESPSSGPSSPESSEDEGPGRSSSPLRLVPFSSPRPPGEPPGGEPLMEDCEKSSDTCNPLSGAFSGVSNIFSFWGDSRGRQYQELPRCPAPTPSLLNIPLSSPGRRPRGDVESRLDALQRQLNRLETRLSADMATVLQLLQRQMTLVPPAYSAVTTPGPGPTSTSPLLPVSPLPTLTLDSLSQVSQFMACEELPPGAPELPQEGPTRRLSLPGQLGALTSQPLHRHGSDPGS

# structure_notation, IC50
data = [
    ("CCOc1ccc2cc(-c3nn(C4CCOCC4)c(N)c3C(N)=O)ccc2n1", "> 30 µM"),
]

----------
protocol_details: Plasma levels and toxicity signs in treated piglets
Type: in vivo, piglet
measurement_parameters: pig, plasma, 5 mg/kg, 5 mg/kg BID, at 2 h post dose 5, read-out: plasma observed Cmax

# structure_notation, Cmax / nM
records = [
    ("CCOc1ccc2cc(-c3nn(C(C)(C)CCO)c(N)c3C(N)=O)ccc2c1", 2100),
]
